# Assay: qHTS of Nrf2 Activators: Hit Validation in NQO-1 Induction Assay
# Experimental conditions: Hepa1c1c7 cells, NQO1 mRNA qPCR, 24 h; at 1 µM; stronger effect = higher value
Decide using relative NQO1 transcription: a value greater than or equal to 80% is Satisfied, a smaller one is Not satisfied.

Completed entries (count: 3):
[
  {
    "Compound string": "CS(=O)(=O)c1nc(S(=O)(=O)c2ccc(Cl)cc2)c(N2CCOCC2)s1",
    "Class": "Satisfied"
  },
  {
    "Compound string": "COC(=O)c1c(NC(=O)c2ccccc2)sc(C(N)=O)c1C",
    "Class": "Not satisfied"
  },
  {
    "Compound string": "O=C(Nc1cccc2ncccc12)c1ccc(Cl)cc1",
    "Class": "Satisfied"
  }
]

Say whether "O=C(Nc1ncnc2sc3c(c12)CCC3)c1ccco1" shows relative NQO1 transcription of 80% or more. Satisfied

Check "COc1ccc(NC(=O)c2cc(-c3ccco3)on2)c(OC)c1" too. Not satisfied
